Let's look at some binders and their measured % inhibition.
Target: T1, human CX3CR1 (human, UniProt P49238 1-355)
T1 construct: Overexpressed on CHO K1, Ba/F3 or HEK293T cells; also called huCX3CR1; hCX3CR1
T1 sequence: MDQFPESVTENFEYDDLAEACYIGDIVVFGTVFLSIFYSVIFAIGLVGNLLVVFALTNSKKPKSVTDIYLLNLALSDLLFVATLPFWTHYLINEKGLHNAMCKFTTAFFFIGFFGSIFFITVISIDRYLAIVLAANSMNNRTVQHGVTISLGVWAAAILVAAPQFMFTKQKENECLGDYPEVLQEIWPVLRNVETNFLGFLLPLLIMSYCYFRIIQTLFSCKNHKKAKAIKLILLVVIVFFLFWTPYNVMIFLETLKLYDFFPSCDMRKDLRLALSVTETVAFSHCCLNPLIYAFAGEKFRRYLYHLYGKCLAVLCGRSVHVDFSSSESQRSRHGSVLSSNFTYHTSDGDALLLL
Assay: competition flow cytometry vs soluble huCX3CL1-AF647 on CHO K1 huCX3CR1 cells, 30 uM HSA
The response must be a number in % with no trailing unit.

query: Please look at this binder and report its % inhibition: A041600040 (VHH, Trivalent ISVD construct (two anti-CX3CR1 ISVDs, one anti-albumin ISVD), C-terminal alanine included in the entry; also called 66B02_SO (E1D)-9GS-54A12_SO-9GS-ALB23002-A) DVQLVESGGGSVQPGGSLRLSCAASGSIFSSTAMAWYRQAPGKRRDLVAAINTVGVTKYADSVKGRFTISRDNAKNTVYLQMNSLRPEDTALYYCTSDPRRGWDTRYWGQGTLVTVSSGGGGSGGGSEVQLVESGGGSVQPGGSLRLSCAASGSIFSSTAMAWYRQAPGKQRDLVAVISTVGITKYADSVKGRFTISRDNAKNTVYLQMNSLRPEDTALYYCTSDARRGWDTRYWGQGTLVTVSSGGGGSGGGSEVQLVESGGGVVQPGGSLRLSCAASGFTFRSFGMSWVRQAPGKGPEWVSSISGSGSDTLYADSVKGRFTISRDNSKNTLYLQMNSLRPEDTALYYCTIGGSLSRSSQGTLVTVSSA
result: 101

query: Assign % inhibition to the following record: A041600034 (VHH, Trivalent ISVD construct; also called 54A12_SO (E1D)-9GS-ALB23002-9GS-66B02_SO-A) DVQLVESGGGSVQPGGSLRLSCAASGSIFSSTAMAWYRQAPGKQRDLVAVISTVGITKYADSVKGRFTISRDNAKNTVYLQMNSLRPEDTALYYCTSDARRGWDTRYWGQGTLVTVSSGGGGSGGGSEVQLVESGGGVVQPGGSLRLSCAASGFTFRSFGMSWVRQAPGKGPEWVSSISGSGSDTLYADSVKGRFTISRDNSKNTLYLQMNSLRPEDTALYYCTIGGSLSRSSQGTLVTVSSGGGGSGGGSEVQLVESGGGSVQPGGSLRLSCAASGSIFSSTAMAWYRQAPGKRRDLVAAINTVGVTKYADSVKGRFTISRDNAKNTVYLQMNSLRPEDTALYYCTSDPRRGWDTRYWGQGTLVTVSSA
result: 95

query: Please report the measured % inhibition for A041600042 (VHH, Trivalent ISVD construct (two anti-CX3CR1 ISVDs, one anti-albumin ISVD), C-terminal alanine included in the entry; also called 66B02_SO (E1D)-20GS-66B02_SO-20GS-ALB23002-A) DVQLVESGGGSVQPGGSLRLSCAASGSIFSSTAMAWYRQAPGKRRDLVAAINTVGVTKYADSVKGRFTISRDNAKNTVYLQMNSLRPEDTALYYCTSDPRRGWDTRYWGQGTLVTVSSGGGGSGGGGSGGGGSGGGGSEVQLVESGGGSVQPGGSLRLSCAASGSIFSSTAMAWYRQAPGKRRDLVAAINTVGVTKYADSVKGRFTISRDNAKNTVYLQMNSLRPEDTALYYCTSDPRRGWDTRYWGQGTLVTVSSGGGGSGGGGSGGGGSGGGGSEVQLVESGGGVVQPGGSLRLSCAASGFTFRSFGMSWVRQAPGKGPEWVSSISGSGSDTLYADSVKGRFTISRDNSKNTLYLQMNSLRPEDTALYYCTIGGSLSRSSQGTLVTVSSA
result: 95

query: Look up and report measured % inhibition for this entry: A041600025 (VHH, Trivalent ISVD construct (two anti-CX3CR1 ISVDs, one anti-albumin ISVD), C-terminal alanine included in the entry; also called 54A12_SO (E1D)-9GS-ALB23002-9GS-54A12_SO-A) DVQLVESGGGSVQPGGSLRLSCAASGSIFSSTAMAWYRQAPGKQRDLVAVISTVGITKYADSVKGRFTISRDNAKNTVYLQMNSLRPEDTALYYCTSDARRGWDTRYWGQGTLVTVSSGGGGSGGGSEVQLVESGGGVVQPGGSLRLSCAASGFTFRSFGMSWVRQAPGKGPEWVSSISGSGSDTLYADSVKGRFTISRDNSKNTLYLQMNSLRPEDTALYYCTIGGSLSRSSQGTLVTVSSGGGGSGGGSEVQLVESGGGSVQPGGSLRLSCAASGSIFSSTAMAWYRQAPGKQRDLVAVISTVGITKYADSVKGRFTISRDNAKNTVYLQMNSLRPEDTALYYCTSDARRGWDTRYWGQGTLVTVSSA
result: 98
